Cited source for all entries: patent US8680159B2

- Target or test system: B1R receptor of the rat (CHO K1 cells stably transfected with the B1R gene of the rat) (Rattus norvegicus)
- Construct: expressed in transfected cells; host or cells: CHO K1 cells (Chinese hamster ovary), stably transfected
- Run description: Functional study on the bradykinin receptor 1 (B1R), Ca2+ fluorescence (Fluo-4) FLIPR/Novostar assay, rB1R cells
- Assay type: cell-based
- Run conditions: CHO-K1, 10 μM, read-out: % Inhibition (r-B1R) at 10 μM
Assay readout: inhibition at 10 µM (%)

Please review the following examples before continuing.
[[record]]
compound = "CN(C(=O)c1ccc2c(c1)C(N(C)C(=O)c1cccc(Cl)c1Cl)CC2)C1CCN(c2ccncc2)CC1 (stereo not shown)"
assay_readout = "inhibition at 10 µM"
result = 104

[[record]]
compound = "CN(C(=O)c1ccc2c(c1)C(N(C)C(=O)c1cccc(C(F)(F)F)c1Cl)CC2)C1CCN(c2ccncc2)CC1 (stereo not shown)"
assay_readout = "inhibition at 10 µM"
result = 110


[a] CN(C(=O)c1ccc2c(c1)C(NC(=O)c1cc(Cl)ccc1Cl)CC2)C1CCN(c2ccncc2)CC1 (stereo not shown)
[b] CN(C(=O)c1ccc2c(c1)C(NC(=O)Nc1cc(C(F)(F)F)ccc1Cl)CCO2)C1CCN(c2ccncc2)CC1 (stereo not shown)
Query :: Which of these two has the smaller recorded inhibition at 10 µM: a or b ? // return label of chosen record
Result :: b

* * *

- Target or test system: human B1R receptor (CHO K1 cells stably transfected with the human B1R gene) (Homo sapiens)
- Construct: expressed in transfected cells; host or cells: CHO K1 cells (Chinese hamster ovary), stably transfected
- Run description: Functional study on the bradykinin receptor 1 (B1R), Ca2+ fluorescence (Fluo-4) FLIPR/Novostar assay, hB1R cells
- Type: cell-based
- Run conditions: CHO-K1, read-out: % Inhibition (h-B1R) at 10 μM
Assay readout: inhibition at 10 µM (%)

[[record]]
compound = "Cc1cc(N2CCC(N(C)C(=O)c3ccc4c(c3)C(NC(=O)c3cc(F)ccc3Cl)CC4)CC2)cc(C)n1 (stereo not shown)"
assay_readout = "inhibition at 10 µM"
result = 100

[[record]]
compound = "CN(C(=O)c1ccc2c(c1)C(NC(=O)c1c(Cl)cccc1C(F)(F)F)CC2(C)C)C1CCN(c2ccncc2)CC1 (stereo not shown)"
assay_readout = "inhibition at 10 µM"
result = 98

[[record]]
compound = "Cc1cc(N2CCC(N(C)C(=O)c3ccc4c(c3)C(N(C)C(=O)C3CCCCC3)CC4)CC2)cc(C)n1 (stereo not shown)"
assay_readout = "inhibition at 10 µM"
result = 100

[[record]]
compound = "CN(C(=O)c1ccc2c(c1)C(NC(=O)c1ccccc1Cl)CCO2)C1CCN(c2ccncc2)CC1 (stereo not shown)"
assay_readout = "inhibition at 10 µM"
result = 98

[[record]]
compound = "CN(C(=O)c1ccc2c(c1)CCC2NC(=O)c1c(Cl)cccc1C(F)(F)F)C1CCN(c2ccncc2)CC1 (stereo not shown)"
assay_readout = "inhibition at 10 µM"
result = 95

[[record]]
compound = "Cc1cc(N2CCC(N(C)C(=O)c3ccc4c(c3)C(N(C)C(=O)c3cccc(Cl)c3Cl)CC4)CC2)cc(C)n1 (stereo not shown)"
assay_readout = "inhibition at 10 µM"
result = 100

[[record]]
compound = "CN(C(=O)NC1CCCc2ccc(C(=O)N(C)C3CCN(c4ccncc4)CC3)cc21)c1ccccc1Cl (stereo not shown)"
assay_readout = "inhibition at 10 µM"
result = 100


* * *

- Target or test system: B1R receptor of the rat (CHO K1 cells stably transfected with the B1R gene of the rat) (Rattus norvegicus)
- Construct: expressed in transfected cells; host or cells: CHO K1 cells (Chinese hamster ovary), stably transfected
- Run description: Functional study on the bradykinin receptor 1 (B1R), Ca2+ fluorescence (Fluo-4) FLIPR/Novostar assay, rB1R cells
- Assay type: cell-based
- Run conditions: CHO-K1, 10 μM, read-out: % inhibition (rat B1R) at 10 μM
Assay readout: inhibition at 10 µM (%)

[[record]]
compound = "Cc1cc(N2CCC(N(C)C(=O)c3cc4c(cc3F)[C@H](NC(=O)c3ccccc3Cl)CC4)CC2)ncn1 [Example H-152]"
result = 93

[[record]]
compound = "Cc1cc(N2CCC(N(C)C(=O)c3ccc4c(c3)[C@H](NC(=O)c3ccccc3C)CC4)CC2)nc(C)n1 [Example H-162]"
result = 105

[[record]]
compound = "CN(C(=O)c1ccc2c(c1)[C@H](NC(=O)C1CCc3ccccc31)CC2)C1CCN(c2ccncc2)CC1 (stereo partly drawn) [Example H-82]"
result = 112

[[record]]
compound = "CN(C(=O)c1ccc2c(c1)OCC[C@H]2NC(=O)c1ccccc1Cl)C1CCN(c2ccncc2)CC1 [Example H-44]"
result = 94

[[record]]
compound = "O=C(N[C@H]1CCN(C2CCN(C3CC3)CC2)C1)c1ccc2c(c1)[C@H](NC(=O)c1ccccc1Cl)CC2 [Example H-09]"
result = 83


[I] Cc1cc(N2CCC(N(C)C(=O)c3ccc4c(c3)[C@H](NC(=O)c3cc(C)on3)CC4)CC2)ccn1 [Example H-95]
[II] CN(C(=O)c1ccc2c(c1)[C@H](NC(=O)c1ccccc1Cl)CC2)C1CCCN(c2ccncc2)C1 (stereo partly drawn) [Example H-115]
Query :: Of the two listed items, I and II , which carries the larger inhibition at 10 µM figure? // respond with label for picked entry
Result :: I

* * *

- Target or test system: B1R receptor of the rat (CHO K1 cells stably transfected with the B1R gene of the rat) (Rattus norvegicus, UniProt P97583)
- Construct: expressed in transfected cells; host or cells: CHO K1 cells (Chinese hamster ovary), stably transfected
- Sequence (P97583 whole entry): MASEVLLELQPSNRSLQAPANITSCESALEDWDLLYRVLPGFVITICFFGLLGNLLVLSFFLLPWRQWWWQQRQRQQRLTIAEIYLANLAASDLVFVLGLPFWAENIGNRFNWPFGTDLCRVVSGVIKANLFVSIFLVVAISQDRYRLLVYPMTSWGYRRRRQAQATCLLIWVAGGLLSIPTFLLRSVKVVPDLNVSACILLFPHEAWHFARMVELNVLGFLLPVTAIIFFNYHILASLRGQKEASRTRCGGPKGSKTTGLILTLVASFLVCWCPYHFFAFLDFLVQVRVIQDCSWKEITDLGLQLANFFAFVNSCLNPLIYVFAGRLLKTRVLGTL
- Run description: Functional study on the bradykinin receptor 1 (B1R), Ca2+ fluorescence (Fluo-4) FLIPR/Novostar assay, rB1R cells
- Assay type: cell-based
- Run conditions: CHO-K1, 10 μM, read-out: % Inhibition (r-B1R) at 10 μM
Assay readout: inhibition at 10 µM (%)

Worked cases, inhibition at 10 µM given:
[[record]]
molecule = "CN(C(=O)c1ccc2c(c1)C(N(C)C(=O)CCC1CCCC1)CC2)C1CCN(c2ccncc2)CC1 (stereo not shown)"
assay_readout = "inhibition at 10 µM"
uom = "%"
result = 103

[[record]]
molecule = "CN(C(=O)c1ccc2c(c1)C(NC(=O)c1c(Cl)cccc1C(F)(F)F)CC2)C1CCN(c2ccncc2)CC1 (stereo not shown)"
assay_readout = "inhibition at 10 µM"
uom = "%"
result = 110

[[record]]
molecule = "CN(C(=O)c1ccc2c(c1)C(NC(=O)Nc1cc(Cl)ccc1Cl)CCO2)C1CCN(c2ccncc2)CC1 (stereo not shown)"
assay_readout = "inhibition at 10 µM"
uom = "%"
result = 106

[[record]]
molecule = "CN(C(=O)c1ccc2c(c1)CCC2NC(=O)C1CCCCC1)C1CCN(c2ccncc2)CC1 (stereo not shown)"
assay_readout = "inhibition at 10 µM"
uom = "%"
result = 77

[[record]]
molecule = "O=C(NCCC1CCN(c2ccncc2)CC1)c1ccc2c(c1)C(NC(=O)c1cnccc1C(F)(F)F)CC2 (stereo not shown)"
assay_readout = "inhibition at 10 µM"
uom = "%"
result = 104


[P] CC(=O)NC1CCOc2ccc(C(=O)N(C)C3CCN(c4ccncc4)CC3)cc21 (stereo not shown)
[Q] CCS(=O)(=O)NC1CCc2ccc(C(=O)N(C)C3CCN(c4cc(C)nc(C)c4)CC3)cc21 (stereo not shown)
Query :: Between these two entries, P and Q , state which has the higher inhibition at 10 µM. Bench note: the answer is the label of the chosen record.
Result :: P

* * *

- Target or test system: human B1R receptor (CHO K1 cells stably transfected with the human B1R gene) (Homo sapiens, UniProt P46663)
- Construct: expressed in transfected cells; host or cells: CHO K1 cells (Chinese hamster ovary), stably transfected
- Sequence (P46663 whole entry): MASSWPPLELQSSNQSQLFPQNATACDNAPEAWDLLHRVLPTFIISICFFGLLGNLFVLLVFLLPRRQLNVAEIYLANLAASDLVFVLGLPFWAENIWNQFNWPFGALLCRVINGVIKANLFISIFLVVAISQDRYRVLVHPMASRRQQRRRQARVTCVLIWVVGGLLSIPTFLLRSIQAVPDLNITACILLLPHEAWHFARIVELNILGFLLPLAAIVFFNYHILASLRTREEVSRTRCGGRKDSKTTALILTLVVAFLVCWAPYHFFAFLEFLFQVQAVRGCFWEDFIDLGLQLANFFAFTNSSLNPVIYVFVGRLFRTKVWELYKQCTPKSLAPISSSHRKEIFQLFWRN
- Run description: Functional study on the bradykinin receptor 1 (B1R), Ca2+ fluorescence (Fluo-4) FLIPR/Novostar assay, hB1R cells
- Type: cell-based
- Run conditions: CHO-K1, read-out: % inhibition (human B1R) at 10 μM
Assay readout: inhibition at 10 µM (%)

[[record]]
molecule = "Cc1cc(N2CCC(N(C)C(=O)c3ccc4c(c3)[C@H](NC(=O)c3ccccc3Cl)CC4)CC2)ncn1 [Example H-141]"
assay_readout = "inhibition at 10 µM"
result = 99

[[record]]
molecule = "Cc1cc(N2CCC(N(C)C(=O)c3ccc4c(c3)[C@H](NC(=O)c3ccccc3Cl)CC4)CC2)ccn1 [Example H-55]"
assay_readout = "inhibition at 10 µM"
result = 99

[[record]]
molecule = "CN(C(=O)c1ccc2c(c1)[C@H](NC(=O)c1ccccc1Cl)CC2)C1CCCN(c2ccncc2)CC1 (some centres unmarked) [Example H-116]"
assay_readout = "inhibition at 10 µM"
result = 99

[[record]]
molecule = "CC(C)N(C(=O)c1ccc(F)cc1Cl)[C@@H]1CCc2ccc(C(=O)N(C)C3CCN(c4ccncc4)CC3)cc21 [Example H-204]"
assay_readout = "inhibition at 10 µM"
result = 100

[[record]]
molecule = "Cc1cc(N2CC(N(C)C(=O)c3ccc4c(c3)[C@H](NC(=O)c3ccccc3Cl)CC4)C2)ccn1 [Example H-160]"
assay_readout = "inhibition at 10 µM"
result = 100

[[record]]
molecule = "CN(C)c1ccc(N2CCC(N(C)C(=O)c3ccc4c(c3)[C@H](NC(=O)c3ccccc3Cl)CC4)CC2)cn1 [Example H-113]"
assay_readout = "inhibition at 10 µM"
result = 98

[[record]]
molecule = "CCN(C(=O)c1ccc2c(c1)[C@H](NC(=O)c1ccccc1Cl)CC2)C1CCN(c2ccncc2)CC1 [Example H-77]"
assay_readout = "inhibition at 10 µM"
result = 100

[[record]]
molecule = "CN(C(=O)c1ccc2c(c1)[C@H](NC(=O)c1ccccc1C(C)(C)C)CC2)C1CCN(c2ccncc2)CC1 [Example H-67]"
assay_readout = "inhibition at 10 µM"
result = 100

[[record]]
molecule = "CN(C(=O)c1ccc2c(c1)[C@H](NC(=O)C1CCOCC1)CC2)C1CCN(c2ccncc2)CC1 [Example H-76]"
assay_readout = "inhibition at 10 µM"
result = 95

[[record]]
molecule = "CCN(C(=O)c1c(F)cccc1Cl)[C@@H]1CCc2ccc(C(=O)N(C)C3CCN(c4ccncc4)CC3)cc21 [Example H-220]"
assay_readout = "inhibition at 10 µM"
result = 99

[[record]]
molecule = "Cc1cc(N2CCC(N(C)C(=O)c3cc4c(cc3F)[C@H](NC(=O)c3cc(C)on3)CC4)CC2)nc(C)n1 [Example H-143]"
assay_readout = "inhibition at 10 µM"
result = 98

[[record]]
molecule = "Cc1cc(N2CCC(N(C)C(=O)c3cc4c(cc3F)CC[C@H]4N(C(=O)c3ccc(F)cc3Cl)C(C)C)CC2)nc(C)n1 [Example H-198]"
assay_readout = "inhibition at 10 µM"
result = 76

[[record]]
molecule = "Cc1cc(N2CCC(N(C)C(=O)c3ccc4c(c3)[C@H](NC(=O)C3CCCC3)CC4)CC2)ccn1 [Example H-227]"
assay_readout = "inhibition at 10 µM"
result = 100

[[record]]
molecule = "CC(C)CC(=O)N(C(C)C)[C@@H]1CCc2ccc(C(=O)N(C)C3CCN(c4ccnc(N(C)C)c4)CC3)cc21 [Example H-119]"
assay_readout = "inhibition at 10 µM"
result = 91

